- assay system: UniProt Q96RU2
- assay overview: Concentration-response biochemical assay confirming initial hits as inhibitors of ubiquitin-specific protease 28 (AID 1645866)
- condition parameters: purified USP28, ubiquitin-rhodamine fluorescence, 30 min
The source made the active and inactive calls.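 Rule for the calls: active = in confirmatory dose-response testing, peak deubiquitinase inhibition of 30% or more; inactive = the rest.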
Outcomes: true (1) = active, false (0) = inactive

>  <molecule>
O=C(CCc1c[nH]c2ccccc12)Nc1ccc(N2CCOCC2)cc1

>  <assay system>
UniProt Q96RU2

>  <class assignment>
true (1)

$$$$
>  <molecule>
O=C(NC1(O)C(=O)c2ccccc2C1=O)c1ccc(-c2csnn2)cc1

>  <assay system>
UniProt Q96RU2

>  <class assignment>
true (1)

$$$$
>  <molecule>
COC(=O)CC1CC23OC2(C(=O)c2c(O)cccc2C3=O)C(C)O1 (stereo not given)

>  <assay system>
UniProt Q96RU2

>  <class assignment>
true (1)

$$$$
>  <molecule>
COc1ccc(OC)c(-n2c(SCC(=O)N3CCc4ccccc43)nnc2-c2cccc(S(=O)(=O)N(C)C)c2)c1

>  <assay system>
UniProt Q96RU2

>  <class assignment>
true (1)

$$$$
>  <molecule>
Cc1ccc2c(c1)-c1c(c(C(=O)N3CCN(c4ccccc4)CC3)nn1C)CS2

>  <assay system>
UniProt Q96RU2

>  <class assignment>
false (0)

$$$$
>  <molecule>
CC1CCN(c2nc(F)c3c(c2F)S(=O)(=O)CCN3Cc2cccnc2)CC1

>  <assay system>
UniProt Q96RU2

>  <class assignment>
false (0)

$$$$
>  <molecule>
CCOC(=O)c1cnn(-c2ccc(C(=O)Nc3ccc(C)c(Cl)c3)cc2)c1N

>  <assay system>
UniProt Q96RU2

>  <class assignment>
true (1)

$$$$
>  <molecule>
O=C(COc1cc([N+](=O)[O-])cc2cccnc12)NCCC1=CCCCC1

>  <assay system>
UniProt Q96RU2

>  <class assignment>
true (1)

$$$$
>  <molecule>
O=C(Nc1ccc2c(c1)OCO2)C1CCN(Cc2nc3ccccc3s2)CC1

>  <assay system>
UniProt Q96RU2

>  <class assignment>
true (1)

$$$$
>  <molecule>
Cc1cccc(-n2nc(C)c3c2NC(=O)CC3C(=O)c2cc3ccccc3o2)c1 (stereo not given)

>  <assay system>
UniProt Q96RU2

>  <class assignment>
true (1)

$$$$

###

- assay system: Ubiquitin carboxyl-terminal hydrolase 28 (Homo sapiens) (UniProt Q96RU2)
- Sequence (Q96RU2 whole entry, looked up): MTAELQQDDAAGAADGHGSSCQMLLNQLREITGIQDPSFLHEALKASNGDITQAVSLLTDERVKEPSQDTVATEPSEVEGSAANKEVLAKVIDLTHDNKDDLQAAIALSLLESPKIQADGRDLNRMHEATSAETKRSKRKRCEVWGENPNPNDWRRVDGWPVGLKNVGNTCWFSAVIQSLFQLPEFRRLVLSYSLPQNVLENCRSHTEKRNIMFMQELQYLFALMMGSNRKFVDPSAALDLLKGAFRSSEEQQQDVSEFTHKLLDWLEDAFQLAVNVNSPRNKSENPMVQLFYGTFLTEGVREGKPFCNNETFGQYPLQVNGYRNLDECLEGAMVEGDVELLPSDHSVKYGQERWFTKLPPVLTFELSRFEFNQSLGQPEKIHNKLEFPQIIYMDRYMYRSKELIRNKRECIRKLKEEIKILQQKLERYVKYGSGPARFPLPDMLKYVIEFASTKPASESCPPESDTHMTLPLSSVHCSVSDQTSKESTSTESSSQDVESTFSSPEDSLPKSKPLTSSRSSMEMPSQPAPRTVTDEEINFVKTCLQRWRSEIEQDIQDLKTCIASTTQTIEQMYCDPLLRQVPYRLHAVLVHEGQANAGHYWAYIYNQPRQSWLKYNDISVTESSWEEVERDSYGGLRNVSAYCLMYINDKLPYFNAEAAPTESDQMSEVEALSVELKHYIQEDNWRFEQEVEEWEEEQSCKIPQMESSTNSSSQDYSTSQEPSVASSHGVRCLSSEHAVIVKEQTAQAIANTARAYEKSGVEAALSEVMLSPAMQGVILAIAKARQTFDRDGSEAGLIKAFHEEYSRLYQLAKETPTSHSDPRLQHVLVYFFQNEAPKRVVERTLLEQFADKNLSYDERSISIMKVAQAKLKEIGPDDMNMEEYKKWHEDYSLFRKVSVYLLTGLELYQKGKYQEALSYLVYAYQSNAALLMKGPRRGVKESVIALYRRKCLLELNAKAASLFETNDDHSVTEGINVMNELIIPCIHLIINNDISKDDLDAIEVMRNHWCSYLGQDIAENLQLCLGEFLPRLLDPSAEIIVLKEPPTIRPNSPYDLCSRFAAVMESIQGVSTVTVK
- assay overview: Concentration-response biochemical assay confirming initial hits as inhibitors of ubiquitin-specific protease 28 (AID 1645866)
- condition parameters: purified USP28, ubiquitin-rhodamine fluorescence, 30 min
The source made the active and inactive calls.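 How the source made its calls: active means in confirmatory dose-response testing, peak deubiquitinase inhibition of 30% or more; inactive means the rest.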
Outcomes: Y (active), N (inactive)

>  <molecule>
CSc1ncccc1C(=O)OCc1ccc(Br)cc1

>  <class assignment>
Y

$$$$
>  <molecule>
COc1ccc(S(=O)(=O)N2CCC3(CC2)OC(=O)Nc2ccccc23)cc1

>  <class assignment>
Y

$$$$
>  <molecule>
CCOc1ccc(NS(=O)(=O)c2ccc(NC(=O)Nc3ccccc3)cc2)cc1

>  <class assignment>
Y

$$$$
>  <molecule>
Cc1cc(NC(=O)Cn2c(=O)n(CCCCC(=O)NCc3ccco3)c(=O)c3ccccc32)ccc1Br

>  <class assignment>
Y

$$$$
>  <molecule>
Cc1ccccc1OCCSc1nc2ccccc2n1CC(=O)NC1CC1

>  <class assignment>
Y

$$$$
>  <molecule>
FC(F)(F)c1ccccc1CCN1CCc2nc3ccc(Cl)cc3cc2C1

>  <class assignment>
N

$$$$
>  <molecule>
COc1ccc(C(C(=O)NCc2ccccc2)N(C(=O)CCN2CCc3ccccc32)c2ccc(C)c(C)c2)cc1 (stereo unspecified)

>  <class assignment>
N

$$$$
>  <molecule>
Cn1nccc1C(=O)N1CCCCC1c1ncc(Cc2ccc(Cl)cc2)o1 (stereo unspecified)

>  <class assignment>
N

$$$$
>  <molecule>
O=C(c1cc2ccccc2o1)N1CC=C(c2ccccc2)CC1

>  <class assignment>
N

$$$$
>  <molecule>
Cc1sc(NC(=O)CN2CCc3ccccc3C2)nc1-c1ccc2c(c1)CCN2C(=O)C1CCCCC1

>  <class assignment>
N

$$$$
>  <molecule>
Cc1noc(C)c1CN1CC[C@H]2O[C@H](C(=O)NCc3ccco3)CC[C@H]21

>  <class assignment>
N

$$$$
>  <molecule>
Cc1ccc2[nH]c(=O)c(-c3nc4ccc(C)cn4c3NCc3ccc(F)cc3)cc2c1

>  <class assignment>
Y

$$$$
>  <molecule>
CC(C)N1CC[C@@H]2[C@H](C1)CN2C(=O)Nc1cccc(F)c1

>  <class assignment>
N

$$$$
>  <molecule>
COCCNC(=O)Cn1c(=O)n(Cc2ccccc2)c(=O)c2c3c(sc21)CCC3

>  <class assignment>
Y

$$$$
>  <molecule>
Cc1cccc(NC(=O)CSc2ncnc3c2sc2nc(CC(C)C)c4c(c23)CCC4)c1

>  <class assignment>
Y

$$$$
>  <molecule>
FC(F)(F)c1ccccc1CCN1CCc2nc3ncc(Cl)cc3cc2C1

>  <class assignment>
N

$$$$
>  <molecule>
O=S(=O)(c1cccc(F)c1)N1CCc2nc3ccccc3n2CC1

>  <class assignment>
Y

$$$$
>  <molecule>
O=C(Nc1cccc(Br)c1)c1cc(-c2cccnc2)n[nH]1

>  <class assignment>
Y

$$$$
>  <molecule>
CC1OC2CC(O)C1(O)C1=C2C(=O)c2c(O)c3c(c(O)c2C1=O)[C@H](C)O[C@H]1CC(=O)O[C@@H]31 (stereo partly specified)

>  <class assignment>
N

$$$$
>  <molecule>
Cc1ccc2[nH]cc(S(=O)(=O)c3ccc(C)c(F)c3)c(=O)c2c1

>  <class assignment>
Y

$$$$
>  <molecule>
c1ccc(-n2nnc(-c3noc(-c4ccccn4)n3)c2-c2ccncc2)cc1

>  <class assignment>
Y

$$$$

###

- assay system: Ubiquitin carboxyl-terminal hydrolase 28 (Homo sapiens) (UniProt Q96RU2)
- assay overview: Concentration-response biochemical assay confirming initial hits as inhibitors of ubiquitin-specific protease 28 (AID 1645866)
- condition parameters: purified USP28, ubiquitin-rhodamine fluorescence, 30 min
Active and inactive are the calls of the source.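 How the source made its calls: active means in confirmatory dose-response testing, peak deubiquitinase inhibition of 30% or more; inactive means the rest.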
Outcomes: active, inactive

>  <compound>
CC(=O)c1cccc(NC(=O)c2ccc(N3CCCCC3)nn2)c1

>  <class assignment>
active

$$$$
>  <compound>
C=C1CCC2[C@](C)(CCC[C@]2(C)C(=O)OC)[C@H]1CCc1ccoc1C[N+](C)(C)Cc1ccccc1 (stereo not given in full)

>  <class assignment>
active

$$$$
>  <compound>
Cc1ccc(C(=O)Nc2ccc(S(=O)(=O)N3CCCC3)cc2)cc1Br

>  <class assignment>
active

$$$$
>  <compound>
CCc1ccc(NC(=O)Cc2nnc3cc(-c4nc(C)no4)ccn23)cc1

>  <class assignment>
active

$$$$
>  <compound>
COc1ccc(C(=O)C2CC(=O)Nc3c2c(C)nn3-c2ccc(Br)cc2)cc1 (stereo not given)

>  <class assignment>
active

$$$$
>  <compound>
COc1ccc(-c2nc(Cn3nnc(C(=O)Nc4ccc(C)cc4C)c3N)c(C)o2)cc1

>  <class assignment>
active

$$$$
>  <compound>
O=c1c2ccccc2c(-c2nc(-c3ccncc3)no2)cn1-c1ccccc1

>  <class assignment>
active

$$$$
>  <compound>
Cc1nc2ccccc2nc1SCC(=O)Nc1ccc2c(c1)OCO2

>  <class assignment>
active

$$$$
>  <compound>
O=C(O)COc1ccccc1/C=C1\CCc2c1nc1ccccc1c2C(=O)O

>  <class assignment>
inactive

$$$$
>  <compound>
O=C(Nc1ccc2c(c1)OCCO2)C1CCC(Cn2cnc3ccccc3c2=O)CC1 (stereo not given)

>  <class assignment>
active

$$$$
>  <compound>
O=C(COC(=O)c1ccc2ncsc2c1)Nc1ccccc1F

>  <class assignment>
inactive

$$$$
>  <compound>
CNC(=O)c1cc2nc(N(C)C)n(-c3ccc(F)cc3)c2s1

>  <class assignment>
active

$$$$
>  <compound>
COc1ccc(C2SCC(=O)Nc3c2c(=O)[nH]n3C2CCCCC2)cc1 (stereo not given)

>  <class assignment>
active

$$$$
>  <compound>
O=C(Nc1ccc(-c2cn3ccsc3n2)cc1)c1ccc(Cl)c([N+](=O)[O-])c1

>  <class assignment>
active

$$$$
>  <compound>
CC[C@H](C)C[C@H]1CC[C@](O)([C@](C)(O)C(=O)N[C@@H]2C(=O)N3NCCC[C@@H]3C(=O)N(O)[C@@H](C)C(=O)NCC(=O)N3NCCC[C@H]3C(=O)N(O)[C@H](C)C(=O)O[C@H]2C(C)C)O[C@@H]1C

>  <class assignment>
active

$$$$
>  <compound>
O=C(CSc1nc2ccncc2[nH]1)Nc1ccc(Br)cc1F

>  <class assignment>
active

$$$$
>  <compound>
CCOC(=O)c1c(C)nc2n(Cc3ccccc3)c3ccccc3n12

>  <class assignment>
active

$$$$
>  <compound>
Cc1ccc(C)c(-n2c(N)c(C(=O)NCCc3ccccc3)c3nc4ccccc4nc32)c1

>  <class assignment>
inactive

$$$$
>  <compound>
CCOC(=O)c1cc2c(ccn2C)n1CC(=O)N1CCC(C)CC1

>  <class assignment>
inactive

$$$$
>  <compound>
N#Cc1cccc(NC(=O)Nc2cccn(Cc3ccccc3F)c2=O)c1

>  <class assignment>
active

$$$$
>  <compound>
O=C(CNC(=O)OCc1ccccc1)Nc1ccc(Br)cc1C(=O)c1ccccc1Cl

>  <class assignment>
active

$$$$
>  <compound>
CN(C(=O)c1cccc2cccnc12)c1nc2c(s1)CCc1occc1-2

>  <class assignment>
active

$$$$
>  <compound>
Cc1c(-c2nsc(NC(=O)c3ccc(Cl)cc3)n2)nnn1-c1ccccc1F

>  <class assignment>
active

$$$$
>  <compound>
Cc1nn(-c2ccc(F)cc2)cc1-c1noc(C(=O)NCc2ccccn2)n1

>  <class assignment>
active

$$$$
>  <compound>
Cc1[nH]nc(NC(=O)C2COc3ccccc3O2)c1-c1ccccc1 (stereo not given)

>  <class assignment>
active

$$$$
>  <compound>
C/C1=C/CC(O)/C=C/C(C)C(O)C(C)/C=C(\C)C(=O)c2c(O)c(C)cc3c2C(=O)C(Cl)=C(NC(=O)\C=C/C=C/C=C\C(C)C(O)CC1=O)C3=O (stereo not given)

>  <class assignment>
active

$$$$
>  <compound>
O=C1C/C(=C\c2cccc(Cl)c2)Cc2ccccc21

>  <class assignment>
active

$$$$
>  <compound>
Cc1ccc(NC(=O)c2nnn(-c3ccccc3Br)c2C)cc1C

>  <class assignment>
active

$$$$
>  <compound>
COc1ccc(NC(=O)c2ccc(Nc3nnc(C)c4ccccc34)cc2)cc1

>  <class assignment>
active

$$$$
>  <compound>
C=C1CCC2[C@](C)(CCC[C@]2(C)C(=O)OC)[C@H]1CCc1ccoc1/C=C/C(=O)O (stereo not given in full)

>  <class assignment>
active

$$$$
>  <compound>
O=C(Nc1ccccc1)c1cn2c3c(cccc3c1=O)CC2

>  <class assignment>
active

$$$$
>  <compound>
Cn1cc2cccc(NC(=O)c3ccc(F)cc3)c2n1

>  <class assignment>
inactive

$$$$
>  <compound>
COc1cccc(N2CCN(C(=O)CCNS(=O)(=O)c3ccc4c(c3)CCC(=O)N4)CC2)c1

>  <class assignment>
inactive

$$$$
>  <compound>
Cc1nn(-c2cc(N3CCOCC3)ncn2)c(C)c1CCC(=O)Nc1ccc(C(C)C)cc1

>  <class assignment>
active

$$$$
>  <compound>
Cc1ccc(Nc2nc(C(=O)NCc3ccc4c(c3)OCO4)cc3occc23)cc1Cl

>  <class assignment>
active

$$$$
>  <compound>
Cc1ccccc1C(=O)OCCN1C(=O)c2cccc3c(N4CCCCC4)ccc(c23)C1=O

>  <class assignment>
inactive

$$$$
>  <compound>
COc1ccc(-n2ccc(=O)c(-c3nc(-c4ccccc4F)no3)n2)cc1OC

>  <class assignment>
inactive

$$$$
>  <compound>
CCc1ccc(NC(=O)Cc2nnc(-c3ccc4ncccc4c3)o2)cc1

>  <class assignment>
active

$$$$
>  <compound>
O=C1COc2ccc(NC(=O)c3cnn(Cc4ccccc4)c3)cc2N1

>  <class assignment>
active

$$$$
>  <compound>
O=C(NC1CCN(c2nc(-c3cccnc3)nc3ccccc23)CC1)c1cccnc1

>  <class assignment>
active

$$$$

These entries and their values trace back to PubChem BioAssay AID1645866.
